# testedSystem: human MLKL (full length) (Homo sapiens (Human), UniProt Q8NB16)
# Sequence (Q8NB16 whole entry): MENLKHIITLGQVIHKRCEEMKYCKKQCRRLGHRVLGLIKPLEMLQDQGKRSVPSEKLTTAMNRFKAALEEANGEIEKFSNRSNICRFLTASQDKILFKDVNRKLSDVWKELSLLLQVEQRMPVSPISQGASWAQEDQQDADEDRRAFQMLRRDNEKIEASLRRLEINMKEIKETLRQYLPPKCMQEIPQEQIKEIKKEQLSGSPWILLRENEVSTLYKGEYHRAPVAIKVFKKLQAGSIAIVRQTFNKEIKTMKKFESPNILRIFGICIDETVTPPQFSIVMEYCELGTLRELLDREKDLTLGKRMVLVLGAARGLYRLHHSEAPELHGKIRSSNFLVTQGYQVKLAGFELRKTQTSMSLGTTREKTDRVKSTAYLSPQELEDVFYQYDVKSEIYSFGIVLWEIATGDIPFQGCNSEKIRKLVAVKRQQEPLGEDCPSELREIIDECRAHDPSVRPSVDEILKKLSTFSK
# protocolDescription: KINOMEscan binding assay, human MLKL (full length)
# testParameters: hMLKL, Table 25; read-out: MLKL (KD)
pKd: −log10 of the molar value.
quantityMeasured: pKd

Reference set, count: 3
{"smilesInput": "Cc1ncsc1-c1ccc(CNC(=O)[C@@H]2C[C@@H](O)CN2C(=O)[C@@H](NC(=O)COCCOc2ccc(-c3cnc(N)c4c(-c5ccc(NS(=O)(=O)C(F)F)c(O[C@@H](C)c6ccc(F)cc6)c5)nn(C)c34)cc2)C(C)(C)C)cc1", "pKd": "6.00 to 8.00"}
{"smilesInput": "Cc1ncsc1-c1ccc(CNC(=O)[C@@H]2C[C@@H](O)CN2C(=O)[C@@H](NC(=O)CCCCN2CCC(C#Cc3cnc(N)c4c(-c5ccc(NS(=O)(=O)C(F)F)c(O[C@@H](C)c6ccc(F)cc6)c5)nn(C)c34)CC2)C(C)(C)C)cc1", "pKd": "> 8.00"}
{"smilesInput": "Cc1ncsc1-c1ccc(CNC(=O)[C@@H]2C[C@@H](O)CN2C(=O)[C@H](NC(=O)C2(F)CC2)C(C)(C)C)c(OCCCCCCCn2cc(-c3cnc(N)c4c(-c5ccc(NS(=O)(=O)C(F)F)c(O[C@@H](C)c6ccc(F)cc6)c5)nn(C)c34)cn2)c1", "pKd": "6.00 to 8.00"}

Continue with the compound presented below.
Recorded pKd (compound `Cc1ncsc1-c1ccc(CNC(=O)[C@@H]2C[C@@H](O)CN2C(=O)[C@@H](NC(=O)CCN2CCC(n3cc(-c4cnc(N)c5c(-c6ccc(NS(=O)(=O)C(F)F)c(O[C@@H](C)c7ccc(F)cc7)c6)nn(C)c45)cn3)CC2)C(C)(C)C)cc1` ): > 8.00

Reference source for all entries: patent US20250115598A1
